molecular target: T1, Recombinant cynomolgus TfR1, His6-tagged (a.a. 89-760) (cynomolgus, UniProt H9EXL1 89-760 (rhesus entry)); experiment: FP competition, competitor BCY15768
T1 construct: range 89-760; same product number named for FP and SPR; also called Cyno TfR1; Acro Biosystems TFR-C524a
T1 sequence (chain, as listed by the source): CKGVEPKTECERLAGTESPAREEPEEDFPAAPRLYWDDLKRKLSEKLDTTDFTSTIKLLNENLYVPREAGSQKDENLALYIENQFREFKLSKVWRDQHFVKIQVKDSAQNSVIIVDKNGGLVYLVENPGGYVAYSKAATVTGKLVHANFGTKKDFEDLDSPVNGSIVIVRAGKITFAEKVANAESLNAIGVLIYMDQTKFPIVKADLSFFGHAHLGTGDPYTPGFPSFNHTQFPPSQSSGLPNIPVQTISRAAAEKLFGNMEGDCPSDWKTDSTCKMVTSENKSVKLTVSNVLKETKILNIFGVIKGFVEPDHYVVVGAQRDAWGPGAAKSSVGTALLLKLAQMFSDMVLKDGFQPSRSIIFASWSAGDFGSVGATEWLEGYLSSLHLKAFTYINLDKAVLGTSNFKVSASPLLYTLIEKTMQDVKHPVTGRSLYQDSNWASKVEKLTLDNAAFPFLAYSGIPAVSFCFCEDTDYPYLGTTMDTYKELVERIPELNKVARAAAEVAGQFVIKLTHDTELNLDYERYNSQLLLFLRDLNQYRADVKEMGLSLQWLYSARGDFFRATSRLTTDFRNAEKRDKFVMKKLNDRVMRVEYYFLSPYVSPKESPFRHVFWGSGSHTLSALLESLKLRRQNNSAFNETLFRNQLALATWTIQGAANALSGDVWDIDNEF
Starred links: 1 amine or outer side, 2 acyl side, 3 side chain; linkers in the order of their positions; H or OH if unused. Positions of bridges follow the written chain, without caps; N, C: chain ends. Non-standard residues stand in square brackets, D forms with d. No end group written: not given here. TATB = O=C(C[*:1])N1CN(C(=O)C[*:2])CN(C(=O)C[*:3])C1; Tle = CC(C)(C)[C@H](N)C(=O)O
Here, each record is paired with measured Ki data.
Lab note: write values as number then unit, every time.

Ask | Fill blank: measured Ki of the binder ACPPDAHLGCISYCA (3 Cys on TATB) [BCY16048] is ____.
Reply | 0.621 µM

Ask | ACSADDWLGCISYCA (linker 2-10-14 via TATB) [BCY15471] , same question.
Reply | 4.66 µM

Ask | ACSPDAHLGC[Tle]SYCA (linker 2-10-14 via TATB) [BCY16051] , same question.
Reply | 0.482 µM

Ask | ACPPDSWQGCISYCA (linker 2-10-14 via TATB) [BCY13989] , same question.
Reply | 3.44 µM
